Data origin, for the record: ChEMBL document CHEMBL1914432

# Test system: Hepatitis C virus
# experimentalDetails: Antiviral activity against chronic Hepatitis C virus type 2a infected in human HuH7 cells by Renilla luciferase reporter gene assay
# Assay type: functional, organism-based, Hepacivirus hominis
# experimentalConditions: genotype 2a, Huh-7
pIC50: −log10 of the molar value.
observable: pIC50

[[record]]
compound = "COC(=O)c1ccc2c(c1)c1c(n2CCCn2ccnc2)CCCC1"
qualifyingsign = "="
valueobserved = 6.77

[[record]]
compound = "COC(=O)c1ccc2c(c1)c1c(n2CCCOc2nc(OC)cc(OC)n2)CCCC1"
qualifyingsign = "="
valueobserved = 9.22

[[record]]
compound = "COC(=O)c1ccc2c(c1)c1c(n2CCCOc2nc(C)cc(C(F)(F)F)n2)CCCC1"
qualifyingsign = "="
valueobserved = 8.30

[[record]]
compound = "COC(=O)c1ccc2c(c1)c1c(n2CCCNc2nc(C)cc(C(=O)OC)n2)CCCC1"
qualifyingsign = "="
valueobserved = 7.52

[[record]]
compound = "COC(=O)c1ccc2c(c1)c1c(n2CC2CCCN(c3nc(OC)cc(OC)n3)C2)CCCC1 (stereo not given)"
qualifyingsign = "="
valueobserved = 7.30

[[record]]
compound = "COC(=O)c1ccc2c(c1)c1c(n2CCCNc2nc(OC)cc(OC)n2)CCCC1"
qualifyingsign = "="
valueobserved = 8.82

[[record]]
compound = "COC(=O)c1ccc2c(c1)c1c(n2CCS(=O)(=O)N(C)C)CCCC1"
qualifyingsign = "<"
valueobserved = 6.00

[[record]]
compound = "COC(=O)c1ccc2c(c1)c1c(n2CCCn2cnc3ncncc32)CCCC1"
qualifyingsign = "="
valueobserved = 7.30

[[record]]
compound = "COC(=O)c1ccc2c(c1)c1c(n2CCCS(=O)(=O)c2ccccc2)CCCC1"
qualifyingsign = "="
valueobserved = 7.30

[[record]]
compound = "COC(=O)c1ccc2c(c1)c1c(n2CCCN(C)c2nc(OC)cc(OC)n2)CCCC1"
qualifyingsign = "="
valueobserved = 8.82

[[record]]
compound = "COc1cc(OC)nc(NCCCn2c3c(c4cc(C(=O)N(C)C)ccc42)CCCC3)n1"
qualifyingsign = "="
valueobserved = 7.52

[[record]]
compound = "COC(=O)c1ccc2c(c1)c1c(n2CCCN2CCNC(=O)C2)CCCC1"
qualifyingsign = "="
valueobserved = 7.19

[[record]]
compound = "COC(=O)c1ccc2c(c1)c1c(n2CCCS(=O)(=O)N2C[C@@H](C)O[C@@H](C)C2)CCCC1"
qualifyingsign = "="
valueobserved = 6.82

[[record]]
compound = "COC(=O)c1ccc2c(c1)c1c(n2CCCOc2cc(Cl)nc(C)n2)CCCC1"
qualifyingsign = "="
valueobserved = 8.82

[[record]]
compound = "COC(=O)c1ccc2c(c1)c1c(n2CCCNc2ncccn2)CCCC1"
qualifyingsign = "="
valueobserved = 7.30

[[record]]
compound = "COC(=O)c1ccc2c(c1)c1c(n2CCCNS(=O)(=O)c2cc(F)cc(F)c2)CCCC1"
qualifyingsign = "="
valueobserved = 7.82

[[record]]
compound = "COC(=O)c1ccc2c(c1)c1c(n2CCCN2C[C@@H](C)N[C@@H](C)C2)CCCC1"
qualifyingsign = "="
valueobserved = 7.40

[[record]]
compound = "COC(=O)c1ccc2c(c1)c1c(n2CCCN2CCOCC2)CCCC1"
qualifyingsign = "="
valueobserved = 6.82

[[record]]
compound = "COC(=O)c1ccc2c(c1)c1c(n2CCc2nc3ccccc3[nH]2)CCCC1"
qualifyingsign = "="
valueobserved = 8.30

[[record]]
compound = "COC(=O)c1ccc2c(c1)c1c(n2CCCN2CCCC(C(=O)N(C)C)C2)CCCC1 (stereo not given)"
qualifyingsign = "="
valueobserved = 7.30


* * *

Examples of compounds with documented AUC follow.
# experimentalDetails: AUC (all) in rat at 2 mg/kg, iv and 20 mg/kg, po
# Format: ADME, organism-based
# experimentalConditions: plasma
observable: AUC (ng·h/mL)

[[record]]
smilescode = "COc1cc(OC)nc(NCCCn2c3c(c4cc(C(=O)N(C)C)ccc42)CCCC3)n1"
valueobserved = 41

[[record]]
smilescode = "COc1cc(OC)nc(NCCCn2c3c(c4cc(C(=O)OC(C)C)ccc42)CCCC3)n1"
valueobserved = 896

[[record]]
smilescode = "CNC(=O)c1ccc2c(c1)c1c(n2CCCNc2nc(OC)cc(OC)n2)CCCC1"
valueobserved = 45


* * *

# Tested on: Hepatitis C virus
# experimentalDetails: Antiviral activity against chronic Hepatitis C virus type 2a infected in human HuH7 cells by Renilla luciferase reporter gene assay
# Type: functional, organism-based, Hepacivirus hominis
# experimentalConditions: genotype 2a, Huh-7
Hi! Just check whether IC50 is below 20 nM. Below gives y, equal or above gives n.

[[record]]
smilescode = "COC(=O)c1ccc2c(c1)c1c(n2CCCn2cncc2C)CCCC1"
systemname = "Hepatitis C virus"
labelclass = "n"

[[record]]
smilescode = "COC(=O)c1ccc2c(c1)c1c(n2CCCCNc2nc(OC)cc(OC)n2)CCCC1"
systemname = "Hepatitis C virus"
labelclass = "n"

[[record]]
smilescode = "COC(=O)c1ccc2c(c1)c1c(n2CCCC(=O)N(C)C)CCCC1"
systemname = "Hepatitis C virus"
labelclass = "n"

[[record]]
smilescode = "COC(=O)c1ccc2c(c1)c1c(n2CCCS(=O)(=O)N(C)C)CCCC1"
systemname = "Hepatitis C virus"
labelclass = "y"

[[record]]
smilescode = "COC(=O)c1ccc2c(c1)c1c(n2CCCN2C[C@@H](C)O[C@@H](C)C2)CCCC1"
systemname = "Hepatitis C virus"
labelclass = "n"

[[record]]
smilescode = "COC(=O)c1ccc2c(c1)c1c(n2CCCS(=O)(=O)N2CCCCC2)CCCC1"
systemname = "Hepatitis C virus"
labelclass = "n"

[[record]]
smilescode = "COc1cc(OC)nc(NCCCn2c3c(c4cc(C(=O)OC(C)C)ccc42)CCCC3)n1"
systemname = "Hepatitis C virus"
labelclass = "y"

[[record]]
smilescode = "CNC(=O)c1ccc2c(c1)c1c(n2CCCNc2nc(OC)cc(OC)n2)CCCC1"
systemname = "Hepatitis C virus"
labelclass = "y"

[[record]]
smilescode = "COC(=O)c1ccc2c(c1)c1c(n2CC2CCN(c3nc(OC)cc(OC)n3)CC2)CCCC1"
systemname = "Hepatitis C virus"
labelclass = "y"

[[record]]
smilescode = "COC(=O)c1ccc2c(c1)c1c(n2CCCS(=O)(=O)N2CCC2)CCCC1"
systemname = "Hepatitis C virus"
labelclass = "y"


* * *

# experimentalDetails: Cmax in rat at 2 mg/kg, iv and 20 mg/kg, po
# Assay type: ADME, organism-based
# experimentalConditions: in vivo
Parameter Cmax: see the listing below.
observable: Cmax

[[record]]
smilescode = "CNC(=O)c1ccc2c(c1)c1c(n2CCCNc2nc(OC)cc(OC)n2)CCCC1"
valueobserved = "51 ng/mL"

[[record]]
smilescode = "COc1cc(OC)nc(NCCCn2c3c(c4cc(C(=O)N(C)C)ccc42)CCCC3)n1"
valueobserved = "51 ng/mL"

[[record]]
smilescode = "COc1cc(OC)nc(NCCCn2c3c(c4cc(C(=O)OC(C)C)ccc42)CCCC3)n1"
valueobserved = "547 ng/mL"


* * *

# experimentalDetails: Half life in rat at 2 mg/kg, iv and 20 mg/kg, po
# Type: ADME, organism-based
# experimentalConditions: in vivo
// reported half-life per item
observable: half-life

[[record]]
smilescode = "COc1cc(OC)nc(NCCCn2c3c(c4cc(C(=O)N(C)C)ccc42)CCCC3)n1"
observable = "half-life"
valueobserved = "33 min"

[[record]]
smilescode = "CNC(=O)c1ccc2c(c1)c1c(n2CCCNc2nc(OC)cc(OC)n2)CCCC1"
observable = "half-life"
valueobserved = "28.2 min"

[[record]]
smilescode = "COc1cc(OC)nc(NCCCn2c3c(c4cc(C(=O)OC(C)C)ccc42)CCCC3)n1"
observable = "half-life"
valueobserved = "74.4 min"


* * *

# systemName: Scavenger receptor class B member 1 (Homo sapiens)
# experimentalDetails: Inhibition of human SRB1-mediated Hepatitis C virus genotype 2a entry into human 293T cells by immunoblotting
# Format: cell-based
The source made the active and inactive calls. No cut-off for these calls is given here.
Outcomes: active, inactive

[[record]]
smilescode = "CNC(=O)c1ccc2c(c1)c1c(n2CCCNc2nc(OC)cc(OC)n2)CCCC1"
labelclass = "active"

[[record]]
smilescode = "COc1cc(OC)nc(NCCCn2c3c(c4cc(C(=O)O)ccc42)CCCC3)n1"
labelclass = "inactive"

[[record]]
smilescode = "COC(=O)c1ccc2c(c1)c1c(n2CCCNc2nc(OC)cc(OC)n2)CCCC1"
labelclass = "active"

[[record]]
smilescode = "COc1cc(OC)nc(NCCCn2c3c(c4cc(C(=O)OC(C)C)ccc42)CCCC3)n1"
labelclass = "active"

[[record]]
smilescode = "COc1cc(OC)nc(NCCCn2c3c(c4cc(C(=O)N(C)C)ccc42)CCCC3)n1"
labelclass = "active"

